biological target: recombinant human His6-USP1/His6-UAF1 composite protein (Homo sapiens (Human)); assay: USP1 enzyme activity detection (Ub-Rho fluorescence); conditions: USP1/UAF1, Ub-Rho substrate 300 nM, 1 hour pre-incubation; read-out: IC50 (enzymatic inhibition of USP1)
pIC50: −log10 of the molar value.
Kindly return MET if reported pIC50 is no lower than 8; return NOT MET if it is lower.

COMPOUND	ASSIGNED_CLASS
COc1ncnc(C2CC2)c1-c1ncc2c3sncc3n(Cc3ccc(-c4nc(C(F)(F)F)cn4C)cc3)c2n1 [Compound 60]	MET
COc1ncnc(C2CC2)c1-c1ncc2c3cc(C(C)(C)O)ccc3n(Cc3ccc(-c4nc(C(F)(F)F)cn4C)cc3)c2n1 [Compound 34]	NOT MET
COc1ncnc(C2CC2)c1-c1ncc2c(n1)n(Cc1ccc(-c3nc(C(F)(F)F)cn3C(C)C)cc1)c1nccn21 [Compound 32]	NOT MET
CCn1cc(C(F)(F)F)nc1-c1ccc(Cn2c3cc(C(F)(F)F)ccc3c3cnc(-c4c(OC)ncnc4C4CC4)nc32)cc1 [Compound 45]	MET
COc1ncnc(C2CC2)c1-c1ncc2c3cccc(F)c3n(Cc3ccc(-n4nc(C(F)(F)F)cc4C)cc3)c2n1 [Compound 49]	NOT MET
COc1ncnc(C2CC2)c1-c1ncc2c3cccc(Cl)c3n(Cc3ccc(-c4nc(C(F)(F)F)cn4C)cc3)c2n1 [Compound 44]	MET
COc1ncnc(C2CC2)c1-c1ncc2c3ccc(N4CC(OC)C4)nc3n(Cc3ccc4c(c3)CCCn3cc(C(F)(F)F)nc3-4)c2n1 [Compound 137]	MET
COc1ncnc(C2CC2)c1-c1ncc2c3ccc(N4CC(O)C4)nc3n(Cc3ccc4c(c3)CCCn3cc(C(F)(F)F)nc3-4)c2n1 [Compound 136]	MET
COc1ncnc(C2CC2)c1-c1ncc2c3cn(C)nc3n(Cc3ccc(-c4nc(C(F)(F)F)c5n4CCOC5)cc3)c2n1 [Compound 139]	NOT MET

----------
The following molecules are listed with their measured IC50 values.
target: recombinant human His6-USP1/His6-UAF1 composite protein (Homo sapiens (Human), UniProt O94782); test: USP1 enzyme activity detection (Ub-Rho fluorescence); conditions: USP1/UAF1, Ub-Rho substrate 300 nM, 1 hour pre-incubation; read-out: IC50 (enzymatic inhibition of USP1)
Sequence (O94782 whole entry): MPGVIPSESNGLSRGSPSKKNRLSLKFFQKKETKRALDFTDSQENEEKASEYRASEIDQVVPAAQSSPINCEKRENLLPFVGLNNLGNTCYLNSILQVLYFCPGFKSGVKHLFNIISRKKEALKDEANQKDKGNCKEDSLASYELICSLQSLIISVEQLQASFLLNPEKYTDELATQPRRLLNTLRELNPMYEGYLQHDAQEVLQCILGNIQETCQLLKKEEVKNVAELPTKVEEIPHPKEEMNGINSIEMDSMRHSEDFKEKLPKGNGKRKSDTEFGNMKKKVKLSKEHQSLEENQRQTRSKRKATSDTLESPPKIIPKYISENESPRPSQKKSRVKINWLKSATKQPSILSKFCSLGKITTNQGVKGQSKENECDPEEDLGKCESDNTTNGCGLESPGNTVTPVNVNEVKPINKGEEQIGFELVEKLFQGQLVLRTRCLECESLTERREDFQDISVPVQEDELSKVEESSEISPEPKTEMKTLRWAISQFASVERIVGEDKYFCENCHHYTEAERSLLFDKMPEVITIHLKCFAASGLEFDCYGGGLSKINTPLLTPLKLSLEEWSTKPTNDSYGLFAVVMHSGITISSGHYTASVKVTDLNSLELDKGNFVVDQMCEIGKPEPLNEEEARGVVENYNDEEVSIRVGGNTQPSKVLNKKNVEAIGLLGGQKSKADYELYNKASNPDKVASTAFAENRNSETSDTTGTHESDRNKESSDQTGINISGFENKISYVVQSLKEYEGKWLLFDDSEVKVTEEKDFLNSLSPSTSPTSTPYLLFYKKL
Sequence (Q8TAF3 whole entry partner): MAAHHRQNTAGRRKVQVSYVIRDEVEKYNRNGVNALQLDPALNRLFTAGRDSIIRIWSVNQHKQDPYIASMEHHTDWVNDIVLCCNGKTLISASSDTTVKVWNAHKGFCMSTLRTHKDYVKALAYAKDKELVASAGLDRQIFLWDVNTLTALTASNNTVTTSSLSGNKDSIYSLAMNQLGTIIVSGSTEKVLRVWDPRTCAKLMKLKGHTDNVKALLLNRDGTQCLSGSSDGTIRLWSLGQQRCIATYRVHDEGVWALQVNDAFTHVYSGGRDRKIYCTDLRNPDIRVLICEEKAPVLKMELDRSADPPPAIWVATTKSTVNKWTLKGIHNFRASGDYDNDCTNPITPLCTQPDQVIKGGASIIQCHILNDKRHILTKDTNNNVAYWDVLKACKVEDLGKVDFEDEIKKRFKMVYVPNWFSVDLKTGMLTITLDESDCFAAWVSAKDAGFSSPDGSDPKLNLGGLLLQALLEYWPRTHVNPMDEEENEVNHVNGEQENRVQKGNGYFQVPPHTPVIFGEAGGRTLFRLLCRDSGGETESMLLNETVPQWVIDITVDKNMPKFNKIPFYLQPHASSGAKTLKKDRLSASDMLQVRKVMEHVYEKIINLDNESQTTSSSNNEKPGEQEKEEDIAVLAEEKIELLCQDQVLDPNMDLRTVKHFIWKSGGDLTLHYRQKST
MEASUREMENT_LABEL: IC50 (nM)

MOLECULE	MEASUREMENT_LABEL	ASSAY_RESULT
COc1ncnc(C2CC2)c1-c1ncc2c3cc(C#N)ccc3n(Cc3ccc(-c4nc(C(F)(F)F)cn4C(C)C)cc3)c2n1	IC50	58.3
COc1ncnc(C2CC2)c1-c1ncc2c3cn(C)nc3n(Cc3ccc(-c4nc(C(F)(F)F)sc4C)cc3)c2n1	IC50	4.68
COc1ccc2c(c1)c1cnc(-c3c(OC)ncnc3C3CC3)nc1n2Cc1ccc(-c2nc(C(F)(F)F)cn2C(C)C)cc1	IC50	26.1
CCP(=O)(CC)c1ccc2c3cnc(-c4c(OC)ncnc4C4CC4)nc3n(Cc3ccc4c(c3)CCCn3cc(C(F)(F)F)nc3-4)c2c1	IC50	6.2
COc1ncnc(C2CC2)c1-c1ncc2c3ccncc3n(Cc3ccc(-c4nc(C(F)(F)F)cn4C(C)C)cc3)c2n1	IC50	4.62
CCn1cc(C(F)(F)F)nc1-c1ccc(Cn2c3cc(C#N)ccc3c3cnc(-c4c(OC)ncnc4C4CC4)nc32)cc1	IC50	4.84
COc1ncnc(C2CC2)c1-c1ncc2c3c(F)cccc3n(Cc3ccc(-c4nc(C(F)(F)F)cn4C(C)C)cc3)c2n1	IC50	6.85
COc1ncnc(C2CC2)c1-c1ncc2c3ccncc3n(Cc3ccc(-c4nc(C(F)(F)F)c(C)n4C)cc3)c2n1	IC50	1
COc1ncnc(C2CC2)c1-c1ncc2c3cccnc3n(Cc3ccc4c(c3)CCCn3cc(C(F)(F)F)nc3-4)c2n1	IC50	2.74
COc1ncnc(C2CC2)c1-c1ncc2c3cn[nH]c3n(Cc3ccc(C4NC(C(F)(F)F)=CN4C(C)C)cc3)c2n1 (centres unmarked)	IC50	4.7
COc1ncnc(C2CC2)c1-c1ncc2c3cn(C)nc3n(Cc3ccc(-c4nc(C(F)(F)F)cn4C(C)C)cc3)c2n1	IC50	4.5
COc1ncnc(C2CC2)c1-c1ncc2c3ccc(C#N)cc3n(Cc3ccc(-c4nc(C(F)(F)F)cn4C)cc3)c2n1	IC50	4.39
COc1ncnc(C2CC2)c1-c1ncc2c3ccncc3n(Cc3ccc4c(ccn5cc(C(F)(F)F)nc45)c3)c2n1	IC50	36.1
COc1ncnc(C2CC2)c1-c1ncc2c3ccc(N4CCOCC4)nc3n(Cc3ccc4c(c3)CCCn3cc(C(F)(F)F)nc3-4)c2n1	IC50	4.4

----------
molecular target: recombinant human His6-USP1/His6-UAF1 composite protein (Homo sapiens (Human), UniProt O94782); assay: USP1 enzyme activity detection (Ub-Rho fluorescence); settings: USP1/UAF1, Ub-Rho substrate 300 nM, 1 hour pre-incubation; read-out: IC50 (enzymatic inhibition of USP1)

COMPOUND	IC50
COc1ncnc(C2CC2)c1-c1ncc2c3ccncc3n(Cc3ccc(-c4nc(C(F)(F)F)cn4C)cc3)c2n1 [Compound 55]	7.9 nM
COc1ncnc(C2CC2)c1-c1ncc2c3cc(F)cnc3n(Cc3ccc4c(c3)CCCn3cc(C(F)(F)F)nc3-4)c2n1	11.6 nM
CC(C)c1ncccc1-c1ncc2c3ccncc3n(Cc3ccc(-c4nc(C(F)(F)F)cn4C)cc3)c2n1	6.55 nM
COc1ncnc(C2CC2)c1-c1ncc2c3ccncc3n(Cc3ccc4n3CCCn3cc(C(F)(F)F)nc3-4)c2n1	39.2 nM
COc1ccc2c3cnc(-c4c(OC)ncnc4C4CC4)nc3n(Cc3ccc4c(c3)CCCn3cc(C(F)(F)F)nc3-4)c2n1	2.56 nM
COc1ncnc(C2CC2)c1-c1ncc2c3c(n(Cc4ccc(-c5nc(C(F)(F)F)cn5C)cc4)c2n1)CCC3	4.85 nM
COc1ncnc(C2CC2)c1-c1ncc2c3ccc(C#N)cc3n(Cc3cc4c(cn3)-c3nc(C(F)(F)F)cn3CCC4)c2n1	17.8 nM
COc1ncnc(C2CC2)c1-c1ncc2c3ccc(P4(=O)CCCC4)cc3n(Cc3ccc(-c4nc(C(F)(F)F)c5n4CCC5)cc3)c2n1	6.2 nM
COc1cnn(C2CCC2)c1-c1ncc2c3ccncc3n(Cc3ccc(-c4nc(C(F)(F)F)cn4C)cc3)c2n1	7.15 nM
COc1ncnc(C2CC2)c1-c1ncc2c3cnn(C)c3n(Cc3ccc4c(c3)CCCn3cc(C(F)(F)F)nc3-4)c2n1	13.7 nM
COc1ncnc(C2CC2)c1-c1ncc2c3ccccc3n(Cc3ccc(-n4nc(C(F)(F)F)cc4C)cc3)c2n1	9.28 nM
COc1ncnc(C2CC2)c1-c1ncc2c3ccccc3n(Cc3ccc(-c4nc(C(F)(F)F)cn4C)cc3)c2n1	4.04 nM
COc1ncnc(C2CC2)c1-c1ncc2c3ccc(P4(=O)CCCC4)cc3n(Cc3ccc(-c4nc(C(F)(F)F)cn4C(C)C)c(F)c3)c2n1	4 nM
COc1ncnc(C2CC2)c1-c1ncc2c3ccc(N(C(C)C)S(C)(=O)=O)cc3n(Cc3ccc4c(c3)CCCn3cc(C(F)(F)F)nc3-4)c2n1	3.13 nM

----------
target: recombinant human His6-USP1/His6-UAF1 composite protein (Homo sapiens (Human)); test: USP1 enzyme activity detection (Ub-Rho fluorescence); details: USP1/UAF1, Ub-Rho substrate 300 nM, 1 hour pre-incubation; read-out: IC50 (enzymatic inhibition of USP1)
The following compounds are listed with their measured IC50 values.
MEASUREMENT_LABEL: IC50 (nM)

COMPOUND	EXPERIMENTAL_TARGET	DISPLAY_UNIT	ASSAY_RESULT
COc1ncnc(C2CC2)c1-c1ncc2c3cccnc3n(Cc3ccc(-c4nc(C(F)(F)F)cn4C(C)C)cc3)c2n1 [Compound 36]	recombinant human His6-USP1/His6-UAF1 composite protein (Homo sapiens (Human))	nM	8.98
COc1ncnc(C2CC2)c1-c1ncc2c3ccc(C#N)cc3n(Cc3ccc(-c4nc(C(F)(F)F)cn4C(C)C)cc3)c2n1 [Compound 51]	recombinant human His6-USP1/His6-UAF1 composite protein (Homo sapiens (Human))	nM	5.9
COc1ncnc(C2CC2)c1-c1ncc2c3cccc(C#N)c3n(Cc3ccc(-c4nc(C(F)(F)F)cn4C)cc3)c2n1 [Compound 26]	recombinant human His6-USP1/His6-UAF1 composite protein (Homo sapiens (Human))	nM	11.5
COc1ncnc(C2CC2)c1-c1ncc2c3ccccc3n([C@@H](C)c3ccc(-c4nc(C(F)(F)F)cn4C(C)C)cc3)c2n1 [Compound 13-P1]	recombinant human His6-USP1/His6-UAF1 composite protein (Homo sapiens (Human))	nM	6.01
COc1ncnc(C2CC2)c1-c1ncc2c3ccc(C(C)(C)O)cc3n(Cc3ccc(-c4nc(C(F)(F)F)cn4C)cc3)c2n1 [Compound 38]	recombinant human His6-USP1/His6-UAF1 composite protein (Homo sapiens (Human))	nM	12.1
[2H]C([2H])([2H])n1cc2c3cnc(-c4c(OC)ncnc4C4CC4)nc3n(Cc3ccc(-c4nc(C(F)(F)F)cn4C(C)C)c(F)c3)c2n1 [Compound 145]	recombinant human His6-USP1/His6-UAF1 composite protein (Homo sapiens (Human))	nM	5.91
COc1ncnc(C2CC2)c1-c1ncc2c3cc(F)ccc3n(Cc3ccc(-c4nc(C(F)(F)F)cn4C(C)C)cc3)c2n1 [Compound 15]	recombinant human His6-USP1/His6-UAF1 composite protein (Homo sapiens (Human))	nM	12.2
COc1ncnc(C2CC2)c1-c1ncc2c3cn(C)nc3n(Cc3ccc(-c4nc(C(F)(F)F)cn4C(C)C)c(F)c3)c2n1 [Compound 107]	recombinant human His6-USP1/His6-UAF1 composite protein (Homo sapiens (Human))	nM	4.65
COc1ncnc(C2CC2)c1-c1ncc2c3ccc(C(N)=O)cc3n(Cc3ccc(-c4nc(C(F)(F)F)cn4C)cc3)c2n1 [Compound 28]	recombinant human His6-USP1/His6-UAF1 composite protein (Homo sapiens (Human))	nM	5.95
COc1ncnc(C2CC2)c1-c1ncc2c3cccc(F)c3n(Cc3ccc(-c4nc(C(F)(F)F)cn4C)cc3)c2n1 [Compound 27]	recombinant human His6-USP1/His6-UAF1 composite protein (Homo sapiens (Human))	nM	9.95
COc1ncnc(C2CC2)c1-c1ncc2c3ccc(S(N)(=O)=O)cc3n(Cc3ccc(-c4nc(C(F)(F)F)cn4C)cc3)c2n1 [Compound 30]	recombinant human His6-USP1/His6-UAF1 composite protein (Homo sapiens (Human))	nM	5.71
CN1CCc2cccc(-c3ncc4c5ccncc5n(Cc5ccc(-c6nc(C(F)(F)F)cn6C)cc5)c4n3)c21 [Compound 84]	recombinant human His6-USP1/His6-UAF1 composite protein (Homo sapiens (Human))	nM	59
COc1ncnc(C2CC2)c1-c1ncc2c3ccccc3n(Cc3ccc(-c4nc(C(F)(F)F)cn4C(C)C)cc3)c2n1 [Compound 2]	recombinant human His6-USP1/His6-UAF1 composite protein (Homo sapiens (Human))	nM	7.55

meta.source: patent US20250368667A1
